- TESTED ON: YtfB (his6-YtfB, C-terminal domain) (Escherichia coli)
- Construct: extracellular C-terminal region, residues 52-212 incl; LysM-like (OapA) domain; His6 tag kept; pETMCSIII-ytfB, expressed in E. coli BL21 AI
- Sequence (P39310 52-212): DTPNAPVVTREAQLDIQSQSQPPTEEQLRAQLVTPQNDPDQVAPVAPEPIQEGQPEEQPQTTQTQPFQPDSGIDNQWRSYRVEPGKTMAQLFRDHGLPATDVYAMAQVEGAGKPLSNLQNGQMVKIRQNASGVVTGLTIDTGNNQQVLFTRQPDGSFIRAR
- METHOD: surface plasmon resonance, steady state affinity, YtfB immobilised by amine coupling on CM5
- Type: binding
- CONDITIONS: PBS running buffer; read-out: KD
REPORTED ENDPOINT: Kd

INSERT INTO measurements (compound, reported_endpoint, recorded_result) VALUES
  ('OC[C@H]1O[C@H](OC[C@H]2OC(O)[C@@H](O)[C@@H](O)[C@@H]2O)[C@@H](O)[C@@H](O)[C@@H]1O (stereo partly shown)', 'Kd', '112 nM');
